- testName: qHTS assay to identify small molecule agonists of the androgen receptor (AR) signaling pathway in the presence of an antagonist - cell viability counter screen (AID 1259379); also: nearly all actives have a fitted effect of over 25% in size
- conditionSummary: MDA-kb2 viability, CellTiter-Fluor, 16 h; series mostly up to 92.4 µM
- Description: National Center for Advancing Translational Sciences [NCATS] NIH Chemical Genomics Center [NCGC] U.S. Environmental Protection Agency [EPA] National Institutes of Environmental Health Sciences [NIEHS] National Toxicology Program [NTP] U.S. Food and Drug Administration [FDA] Androgen receptor (AR) is an important member of nuclear receptor family. Its signaling plays a critical role in AR-dependent prostate cancer and other androgen related diseases. […]
Inconclusive results are not listed. The source made the active and inactive calls. Calls follow the shape of the dose curve; as a rule, active = well fitted cell-killing curve with a large enough effect in the repeat runs; inconclusive = weak or mixed curves, or effect the other way; inactive = flat fitted curve, though single readings scatter.
Labels: active, inactive

- compound: "O=S(=O)(NS(=O)(=O)C(F)(F)F)C(F)(F)F"
  groupLabel: "active"
- compound: "O=S1OCC2C(CO1)C1(Cl)C(Cl)=C(Cl)C2(Cl)C1(Cl)Cl (configuration not stated)"
  groupLabel: "inactive"
- compound: "CNC(=O)O/N=C(\\C)C(C)S(C)(=O)=O (configuration not stated)"
  groupLabel: "inactive"
- compound: "CSC(=O)c1c(C(F)F)nc(C(F)(F)F)c(C(=O)SC)c1CC(C)C"
  groupLabel: "inactive"
- compound: "Oc1cccc(Cl)c1Cl"
  groupLabel: "inactive"
- compound: "CCC[CH2][Sn]([CH2]CCC)([CH2]CCC)[O][Sn]([CH2]CCC)([CH2]CCC)[CH2]CCC"
  groupLabel: "active"
- compound: "C=CCBr"
  groupLabel: "inactive"
- compound: "CC(=O)O.CC(=O)O.CC(=O)O.CC(=O)O.CC(=O)O.CC(=O)O.CC(=O)O.O.O.[Cr].[Cr].[Cr]"
  groupLabel: "inactive"
- compound: "ClC1(Cl)C2(Cl)C3(Cl)C4(Cl)C(Cl)(Cl)C5(Cl)C3(Cl)C1(Cl)C5(Cl)C24Cl (configuration not stated)"
  groupLabel: "inactive"
- compound: "CC[C@]1(O)CC[C@H]2[C@@H]3CCC4=CCCC[C@@H]4[C@H]3CC[C@@]21C"
  groupLabel: "inactive"
- compound: "CO/N=C(\\C(=O)OC)c1ccccc1CO/N=C(\\C)c1cccc(C(F)(F)F)c1"
  groupLabel: "active"
- compound: "Nc1cc(Cl)ccc1Cl"
  groupLabel: "inactive"
- compound: "CCOC(=O)Cc1ccccc1"
  groupLabel: "inactive"
- compound: "O=S(=O)(O)F"
  groupLabel: "inactive"
- compound: "CSC(C)(C)/C=N/O"
  groupLabel: "inactive"
- compound: "Cc1ccc2cc3c(ccc4ccccc43)c3c2c1CC3"
  groupLabel: "inactive"
- compound: "COc1nc(C)nc(NC(=O)NS(=O)(=O)c2ccccc2Cl)n1"
  groupLabel: "inactive"
- compound: "O.O.O.O.O.O.O.O=S(=O)([O-])[O-].[Co+2]"
  groupLabel: "inactive"
- compound: "O=C(CCCCl)c1ccc(F)cc1"
  groupLabel: "inactive"
- compound: "NC(=O)C(Cl)Cl"
  groupLabel: "inactive"
- compound: "C#CCC1=C(C)C(OC(=O)C2C(C=C(C)C)C2(C)C)CC1=O (configuration not stated)"
  groupLabel: "inactive"
- compound: "S=C=Nc1ccccc1"
  groupLabel: "inactive"
- compound: "CCN(CC)CCN1C(=O)CN=C(c2ccccc2F)c2cc(Cl)ccc21"
  groupLabel: "inactive"
- compound: "CCCN"
  groupLabel: "inactive"
- compound: "COc1ccc2c3c1O[C@H]1[C@H](O)CC[C@H]4[C@@H](C2)N(C)CC[C@@]341"
  groupLabel: "inactive"
- compound: "C=Cc1cccc(CCl)c1"
  groupLabel: "inactive"
- compound: "c1ccc2nc(N3CCNCC3)ccc2c1"
  groupLabel: "inactive"
- compound: "CC(C)N(C(=O)CCl)c1ccccc1"
  groupLabel: "active"
- compound: "C#CC1(O)CCCCC1"
  groupLabel: "inactive"
- compound: "Oc1ccc(Cl)c(Cl)c1"
  groupLabel: "inactive"
- compound: "CCCCn1cc[n+](C)c1.[Cl][Fe-]([Cl])([Cl])[Cl]"
  groupLabel: "inactive"
- compound: "CCC(C)Nc1c([N+](=O)[O-])cc(C(C)(C)C)cc1[N+](=O)[O-] (configuration not stated)"
  groupLabel: "inactive"
- compound: "CSC1=N[C@@](C)(c2ccccc2)C(=O)N1Nc1ccccc1"
  groupLabel: "active"
- compound: "O=P(Cl)(Cl)Cl"
  groupLabel: "inactive"
- compound: "Clc1ccc(C2(Cn3cncn3)OCCO2)c(Cl)c1"
  groupLabel: "inactive"
- compound: "CCN(CC)Cc1nccn1-c1ccc([N+](=O)[O-])cc1C(=O)c1ccccc1Cl"
  groupLabel: "inactive"
- compound: "O=[N+]([O-])c1cc(C(F)(F)F)c(Cl)c([N+](=O)[O-])c1Nc1ncc(C(F)(F)F)cc1Cl"
  groupLabel: "active"
- compound: "Nc1ccccc1-c1ccccc1"
  groupLabel: "inactive"
- compound: "O=c1[nH]c(Cl)c(Cl)cc1Cl"
  groupLabel: "inactive"
- compound: "C1=CCC=C1"
  groupLabel: "inactive"
- compound: "Cc1ccn2nc(S(=O)(=O)Nc3c(F)cccc3F)nc2n1"
  groupLabel: "inactive"
- compound: "[C-]1=CC=CC1.[Cl][Zr+2][Cl].c1cc[cH-]c1"
  groupLabel: "inactive"
- compound: "C=CC(=O)[O][Sn]([CH2]CCC)([CH2]CCC)[CH2]CCC"
  groupLabel: "active"
- compound: "COP(=S)(OC)Oc1ccc([N+](=O)[O-])c(C)c1"
  groupLabel: "inactive"
- compound: "[O-][Cl+3]([O-])([O-])O"
  groupLabel: "inactive"
- compound: "CCn1cc[n+](C)c1 (tested in a mixture with another compound)"
  groupLabel: "inactive"
- compound: "CC1(C)[C@H](/C=C2\\CCSC2=O)[C@@H]1C(=O)OCc1coc(Cc2ccccc2)c1"
  groupLabel: "inactive"
- compound: "C[N+]1(C)[C@@H]2CC[C@H]1CC(OC(=O)C(CO)c1ccccc1)C2 (some centres not stated)"
  groupLabel: "inactive"
- compound: "CNC(=O)Oc1cc(C)cc(C(C)C)c1"
  groupLabel: "inactive"
- compound: "Nc1c(Cl)c(Cl)c(Cl)c(Cl)c1Cl"
  groupLabel: "inactive"
- compound: "O=C(O)[C@H](O)[C@@H](O)C(=O)O"
  groupLabel: "inactive"
- compound: "Nc1ccc(Cl)cc1C(=O)c1ccccc1F"
  groupLabel: "inactive"

These entries and their values trace back to PubChem BioAssay (Tox21).
